- target-of-assay: human NOP receptor (Homo sapiens, UniProt P41146)
- Construct: expressed in transfected cells; host or cells: CHO cells stably coexpressing the receptor and chimeric Gαqi5
- Sequence (P41146 whole entry): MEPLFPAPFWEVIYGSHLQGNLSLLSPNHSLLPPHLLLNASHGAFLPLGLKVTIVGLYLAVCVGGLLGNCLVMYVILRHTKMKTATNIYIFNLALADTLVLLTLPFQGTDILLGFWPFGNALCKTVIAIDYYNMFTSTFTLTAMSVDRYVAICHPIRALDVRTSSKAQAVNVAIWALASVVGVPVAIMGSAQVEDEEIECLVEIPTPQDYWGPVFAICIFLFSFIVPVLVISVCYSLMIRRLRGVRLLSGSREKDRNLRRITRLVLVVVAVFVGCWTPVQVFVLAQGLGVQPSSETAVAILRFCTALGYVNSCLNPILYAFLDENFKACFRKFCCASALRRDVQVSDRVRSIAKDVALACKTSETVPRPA
- assay-text: Calcium mobilization, NOP receptor
- Assay type: cell-based
- experimental-conditions: Table 1 series; CHO cells coexpressing human NOP and Gαqi5, Fluo-4 AM, FlexStation II, 37 °C; mean of at least three experiments in duplicate; CL95% in brackets
- Experimental: CHO cells stably coexpressing the human NOP or kappa or the mu receptor and the C-terminally modified Gαqi5 and CHO cells coexpressing the delta receptor and the GαqG66Di5 protein were generated and cultured as described previously.[45],[46] […] After placing both plates (cell culture and master plate) into the fluorometric imaging plate reader FlexStation II (Molecular Devices, Sunnyvale, CA), fluorescence changes were measured. […]
Where a SMILES comes first, the peptide text is derived from it. [ ]: non-standard residue; d: D form. Nle = CCCC[C@H](N)C(=O)O; Dab = NCC[C@H](N)C(=O)O; Dap = NC[C@H](N)C(=O)O

- molecule: "C[C@H](NC(=O)CNC(=O)[C@H](CN)NC(=O)[C@H](Cc1ccccc1)NC(=O)CNC(=O)CNC(=O)[C@@H](N)Cc1ccc(O)cc1)C(=O)N[C@@H](CCCNC(=N)N)C(=O)N[C@@H](CCCCN)C(=O)N[C@@H](CO)C(=O)N[C@@H](C)C(=O)N[C@@H](CCCNC(=N)N)C(=O)N[C@@H](CCCCN)C(N)=O [Compound 9, [Tyr^1,Dap^5]N/OFQ(1-13)-NH2] (H-YGGF[Dap]GARKSARK-NH2)"
  NOP pEC50 (CL95%): "7.20 (6.95–7.45)"
- molecule: "C[C@H](NC(=O)CNC(=O)[C@H](CCN)NC(=O)[C@H](Cc1ccccc1)NC(=O)CNC(=O)CNC(=O)[C@@H](N)Cc1ccc(O)cc1)C(=O)N[C@@H](CCCNC(=N)N)C(=O)N[C@@H](CCCCN)C(=O)N[C@@H](CO)C(=O)N[C@@H](C)C(=O)N[C@@H](CCCNC(=N)N)C(=O)N[C@@H](CCCCN)C(N)=O [Compound 10, [Tyr^1,Dab^5]N/OFQ(1-13)-NH2] (H-YGGF[Dab]GARKSARK-NH2)"
  NOP pEC50 (CL95%): "6.43 (6.28–6.58)"
- molecule: "CCCC[C@H](NC(=O)[C@H](Cc1ccccc1)NC(=O)CNC(=O)CNC(=O)[C@@H](N)Cc1ccc(O)cc1)C(=O)NCC(=O)N[C@@H](C)C(=O)N[C@@H](CCCNC(=N)N)C(=O)N[C@@H](CCCCN)C(=O)N[C@@H](CO)C(=O)N[C@@H](C)C(=O)N[C@@H](CCCNC(=N)N)C(=O)N[C@@H](CCCCN)C(N)=O [Compound 12, [Tyr^1,Nle^5]N/OFQ(1-13)-NH2] (H-YGGF[Nle]GARKSARK-NH2)"
  NOP pEC50 (CL95%): "8.77 (8.45–9.09)"

====

- target-of-assay: human mu receptor (Homo sapiens)
- Construct: expressed in transfected cells; host or cells: CHO cells stably coexpressing the receptor and chimeric Gαqi5
- assay-text: Calcium mobilization, mu opioid receptor
- Format: cell-based
- experimental-conditions: read-out: mu effect at 10 μM (crc incomplete), Table 2 series; 10 μM; percent over the baseline fluorescence; mean ± SEM; SEM
Where a SMILES comes first, the peptide text is derived from it. [ ]: non-standard residue; d: D form. Bip = N[C@@H](Cc1ccc(-c2ccccc2)cc1)C(=O)O; 2Nal = N[C@@H](Cc1ccc2ccccc2c1)C(=O)O; hPhe = N[C@@H](CCc1ccccc1)C(=O)O
Listed here: items and their measured activation at 10 µM.

- compound: "C[C@H](NC(=O)CNC(=O)[C@H](Cc1ccc2ccccc2c1)NC(=O)[C@H](Cc1ccccc1)NC(=O)CNC(=O)CNC(=O)[C@@H](N)Cc1ccc(O)cc1)C(=O)N[C@@H](CCCNC(=N)N)C(=O)N[C@@H](CCCCN)C(=O)N[C@@H](CO)C(=O)N[C@@H](C)C(=O)N[C@@H](CCCNC(=N)N)C(=O)N[C@@H](CCCCN)C(N)=O [Compound 26, [Tyr^1,2Nal^5]N/OFQ(1-13)-NH2] (H-YGGF[2Nal]GARKSARK-NH2)"
  result-unit: "%"
  activation at 10 µM: 244
- compound: "C[C@H](NC(=O)CNC(=O)[C@H](Cc1ccc(-c2ccccc2)cc1)NC(=O)[C@H](Cc1ccccc1)NC(=O)CNC(=O)CNC(=O)[C@@H](N)Cc1ccc(O)cc1)C(=O)N[C@@H](CCCNC(=N)N)C(=O)N[C@@H](CCCCN)C(=O)N[C@@H](CO)C(=O)N[C@@H](C)C(=O)N[C@@H](CCCNC(=N)N)C(=O)N[C@@H](CCCCN)C(N)=O [Compound 24, [Tyr^1,Bip^5]N/OFQ(1-13)-NH2] (H-YGGF[Bip]GARKSARK-NH2)"
  result-unit: "%"
  activation at 10 µM: 151
- compound: "C[C@H](NC(=O)CNC(=O)[C@H](CCc1ccccc1)NC(=O)[C@H](Cc1ccccc1)NC(=O)CNC(=O)CNC(=O)[C@@H](N)Cc1ccc(O)cc1)C(=O)N[C@@H](CCCNC(=N)N)C(=O)N[C@@H](CCCCN)C(=O)N[C@@H](CO)C(=O)N[C@@H](C)C(=O)N[C@@H](CCCNC(=N)N)C(=O)N[C@@H](CCCCN)C(N)=O [Compound 18, [Tyr^1,hPhe^5]N/OFQ(1-13)-NH2] (H-YGGF[hPhe]GARKSARK-NH2)"
  result-unit: "%"
  activation at 10 µM: 228

====

- target-of-assay: human mu receptor (Homo sapiens)
- Construct: expressed in transfected cells; host or cells: CHO cells stably coexpressing the receptor and chimeric Gαqi5
- assay-text: Calcium mobilization, mu opioid receptor
- Assay type: cell-based
- experimental-conditions: read-out: mu Emax ± S.E.M., Table 3 series; percent over the baseline fluorescence; mean ± SEM of at least three experiments in duplicate; SEM
Where a SMILES comes first, the peptide text is derived from it. [ ]: non-standard residue; d: D form. Dmt = Cc1cc(O)cc(C)c1C[C@H](N)C(=O)O
Listed here: items and their measured Emax.

- molecule: "Cc1cc(O)cc(C)c1C[C@H](N)C(=O)NCC(=O)NCC(=O)N[C@@H](Cc1ccccc1)C(=O)N[C@@H](Cc1ccccc1)C(=O)NCC(=O)N[C@@H](C)C(=O)N[C@@H](CCCNC(=N)N)C(=O)N[C@@H](CCCCN)C(=O)N[C@@H](CO)C(=O)N[C@@H](C)C(=O)N[C@@H](CCCNC(=N)N)C(=O)N[C@@H](CCCCN)C(N)=O [Compound 31, [Dmt^1,Phe^5]N/OFQ(1-13)-NH2] (H-[Dmt]GGFFGARKSARK-NH2)"
  Emax, %: 335
- molecule: "C[C@@H](NC(=O)[C@@H](N)Cc1ccc(O)cc1)C(=O)N[C@@H](Cc1ccccc1)C(=O)NCC(=O)N[C@@H](Cc1ccc(O)cc1)C(=O)N1CCC[C@H]1C(=O)N[C@@H](CO)C(N)=O [Compound 2, dermorphin, reference compound]"
  Emax, %: 359

====

- target-of-assay: human mu receptor (Homo sapiens, UniProt P35372)
- Construct: expressed in transfected cells; host or cells: CHO cells stably coexpressing the receptor and chimeric Gαqi5
- Sequence (P35372 whole entry): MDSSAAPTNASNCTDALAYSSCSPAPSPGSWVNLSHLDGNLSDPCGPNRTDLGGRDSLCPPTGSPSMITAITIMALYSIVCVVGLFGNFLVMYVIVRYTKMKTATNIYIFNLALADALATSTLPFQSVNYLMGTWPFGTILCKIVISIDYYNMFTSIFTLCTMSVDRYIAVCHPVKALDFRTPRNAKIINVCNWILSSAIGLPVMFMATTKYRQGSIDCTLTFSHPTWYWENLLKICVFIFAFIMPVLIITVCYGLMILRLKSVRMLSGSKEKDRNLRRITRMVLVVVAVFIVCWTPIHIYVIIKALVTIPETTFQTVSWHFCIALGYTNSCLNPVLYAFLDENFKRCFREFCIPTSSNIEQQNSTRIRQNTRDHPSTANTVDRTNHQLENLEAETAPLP
- assay-text: Calcium mobilization, mu opioid receptor
- Assay type: cell-based
- experimental-conditions: Table 2 series; CHO cells coexpressing human mu receptor and Gαqi5, Fluo-4 AM, 37 °C; mean of at least three experiments in duplicate; CL95% in brackets
Where a SMILES comes first, the peptide text is derived from it. [ ]: non-standard residue; d: D form. Dip = N[C@H](C(=O)O)C(c1ccccc1)c1ccccc1; 1Nal = N[C@@H](Cc1cccc2ccccc12)C(=O)O

- compound: "C[C@H](NC(=O)CNC(=O)[C@H](Cc1cccc2ccccc12)NC(=O)[C@H](Cc1ccccc1)NC(=O)CNC(=O)CNC(=O)[C@@H](N)Cc1ccc(O)cc1)C(=O)N[C@@H](CCCNC(=N)N)C(=O)N[C@@H](CCCCN)C(=O)N[C@@H](CO)C(=O)N[C@@H](C)C(=O)N[C@@H](CCCNC(=N)N)C(=O)N[C@@H](CCCCN)C(N)=O [Compound 25, [Tyr^1,1Nal^5]N/OFQ(1-13)-NH2] (H-YGGF[1Nal]GARKSARK-NH2)"
  mu pEC50 (CL95%): "6.08 (5.67–6.49)"
- compound: "C[C@H](NC(=O)CNC(=O)[C@@H](NC(=O)[C@H](Cc1ccccc1)NC(=O)CNC(=O)CNC(=O)[C@@H](N)Cc1ccc(O)cc1)C(c1ccccc1)c1ccccc1)C(=O)N[C@@H](CCCNC(=N)N)C(=O)N[C@@H](CCCCN)C(=O)N[C@@H](CO)C(=O)N[C@@H](C)C(=O)N[C@@H](CCCNC(=N)N)C(=O)N[C@@H](CCCCN)C(N)=O [Compound 23, [Tyr^1,Dip^5]N/OFQ(1-13)-NH2] (H-YGGF[Dip]GARKSARK-NH2)"
  mu pEC50 (CL95%): "6.78 (6.28–7.27)"
